Catalogue of binders with associated pKd
- Measurement target: T1, PD-1 molecule (refolded, purified and biotinylated PD-1 of Example 2) (UniProt Q15116 33-150, biotinylated with BirA enzyme (site not stated))
- T1 construct: also called Programmed Death-1
- T1 sequence (Q15116 33-150 limits assumed): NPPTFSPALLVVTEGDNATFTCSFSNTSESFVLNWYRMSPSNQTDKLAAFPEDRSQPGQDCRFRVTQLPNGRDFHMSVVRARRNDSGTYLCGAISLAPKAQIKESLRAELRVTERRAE
- Measurement protocol: SPR (BIAcore T200), single-cycle kinetics; biotinylated PD-1 captured via streptavidin, PDL-1 variant in solution
pKd: −log10 of the molar value.
Outcome measure: pKd

binder="high affinity PDL-1 molecule L2F4 (ligand) FTVTVPKDLYVVEYGSNMTIECKFPVEKQLDLAALEVHWFMEDKNIFSFVHGEEDLKVQHSSYRQRARLLKDQLSLGNAALQITDVKLQDAGVYRCMISYGGADYKRITVKVNAPYNKINQRILVVDPVTSEHELTCQAEGYPKAEVIWTSSDHQVLSGKTTTTNSKREEKLFNVTSTLRINTTTNEIFYCTFRRLDPEENHTAELVIPEL" experimental_result=5.12
binder="high affinity PDL-1 molecule L2D7 (ligand) FTVTVPKDLYVVEYGSNMTIECKFPVEKQLDLAALEVHWFMEDKNILSFVHGEEDLKVQHSSYRQRARLLKDQLSLGNAALQITDVKLQDAGVYRCMISYGGADYKRITVKVNAPYNKINQRILVVDPVTSEHELTCQAEGYPKAEVIWTSSDHQVLSGKTTTTNSKREEKLFNVTSTLRINTTTNEIFYCTFRRLDPEENHTAELVIPEL" experimental_result=4.96
binder="high affinity PDL-1 molecule L3C7c (ligand) WTVTVPKDLYVVEYGSNMTIECKFPVEKQLDLAALEVHWFMEDKNIFSFVHGEEDLKVQHSSYRQRARLLKDQLSLGNAALQITDVKLQDAGVYTCLIGYKGADYKRITVKVNAPYNKINQRILVVDPVTSEHELTCQAEGYPKAEVIWTSSDHQVLSGKTTTTNSKREEKLFNVTSTLRINTTTNEIFYCTFRRLDPEENHTAELVIPEL" experimental_result=6.98
binder="high affinity PDL-1 molecule L3D9 (ligand) FTVTVPKDLYVVEYGSNMTIECKFPVEKQLDLAALNVFWFMEDKNIIQFVHGEEDLKVQHSSYRQRARLLKDQLSLGNAALQITDVKLQDAGVYTCLIGYEGADYKRITVKVNAPYNKINQRILVVDPVTSEHELTCQAEGYPKAEVIWTSSDHQVLSGKTTTTNSKREEKLFNVTSTLRINTTTNEIFYCTFRRLDPEENHTAELVIPEL" experimental_result=5.47
binder="high affinity PDL-1 molecule L22C7 (ligand) FTVTVPKDLYVVEYGSNMTIECKFPVEKQLDLAALEVHWFMEDKNIISFVHGEEDLKVQHSSYRQRARLLKDQLSLGNAALQITDVKLQDAGVYRCMISYGGADYKRITVKVNAPYNKINQRILVVDPVTSEHELTCQAEGYPKAEVIWTSSDHQVLSGKTTTTNSKREEKLFNVTSTLRINTTTNEIFYCTFRRLDPEENHTAELVIPEL" experimental_result=4.93
binder="high affinity PDL-1 molecule L32G5 (ligand) FTVTVPKDLYVVEYGSNMTIECKFPVEKQLDLAALIVYWEMEDKNIIQFVHGEEDLKVQHSSYRQRARLLKDQLSLGNAALQITDVKLQDAGVYTCLIGYHGADYKRITVKVNAPYNKINQRILVVDPVTSEHELTCQAEGYPKAEVIWTSSDHQVLSGKTTTTNSKREEKLFNVTSTLRINTTTNEIFYCTFRRLDPEENHTAELVIPEL" experimental_result=5.53
binder="high affinity PDL-1 molecule L3B3d (ligand) WTVTVPKDLYVVEYGSNMTIECKFPVEKQLDLAALQVFWMMEDKNILSFVHGEEDLKVQHSSYRQRARLLKDQLSLGNAALQITDVKLQDAGVYVCLIAYKGADYKRITVKVNAPYNKINQRILVVDPVTSEHELTCQAEGYPKAEVIWTSSDHQVLSGKTTTTNSKREEKLFNVTSTLRINTTTNEIFYCTFRRLDPEENHTAELVIPEL" experimental_result=6.02
